FYI, the data here is from ChEMBL document CHEMBL4359903.

Answer each item with its documented IC50.
Tested on: PC-9
Assay: Antiproliferative activity against human PC9 cells harbouring EGFR delE746-A750 mutant assessed as reduction in cell viability incubated for 72 hrs by MTT assay
Assay type: functional, cell-based
Conditions: PC-9, 72 h
Quick note: give the figure in nM, leave out the unit.

**Query** Return IC50 (reported value) for this molecule: O=C(Nc1cccc(-c2nc(-c3ccc(NC(=O)c4cccnc4)cc3Cl)no2)c1)Nc1ccc(NC(=O)C2CC2)c(C(F)(F)F)c1
**Result** 500

**Query** Please look at this molecule and report its IC50: C#Cc1cccc(Nc2ncnc3cc(OCCOC)c(OCCOC)cc23)c1
**Result** 100
